# PROCEDURE SUMMARY: collision cross section in nitrogen (drift tube, single-field); higher = larger gas-phase ion size;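 also: chemical standards at 10 µM analysed by drift tube IMS-QTOF MS in about 3.95 torr nitrogen, mean of duplicate injections differing ≤1%, mass error below 10 ppm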
# SETTINGS: ion type: [M+Na]; ion source: ESI; ion mode: Positive
PROPERTY MEASURED: collision cross section in nitrogen (Å²)

> print(dat)
                                   molecule  units.text  meas.value
1  Cn1c(=O)cc(Oc2ccc(F)cc2F)c2cnc(NCC(C)(C)O)nc21          Å²       205.6
2  COc1cc(S(=O)(=O)Nc2ccccc2)c(OC)cc1N [4-Amino-2,5-dimethoxy-N-phenylbenzenesulfonamide]          Å²       180.5
3  O=C(N[C@@H](c1ccccc1)[C@@H]1CCCCN1)c1cccc(C(F)(F)F)c1Cl          Å²       200.2
4  CCCCC(CC)COC(=O)c1c(Br)c(Br)c(Br)c(Br)c1C(=O)OCC(CC)CCCC (stereo not drawn) [Bis(2-ethylhexyl) tetrabromophthalate]          Å²       240.6
5  CC(CCl)OP(=O)(OC(C)CCl)OC(C)CCl (stereo not drawn) [Tris(2-chloroisopropyl)phosphate]          Å²       171.9
6  CCCCCCCCCCCC[N+](C)(C)[O-] [N,N-Dimethyldodecylamine-N-oxide]          Å²       170.8
7                     O=S(=O)(O)CCCN1CCOCC1          Å²       154.6
8  CCCCCCCCCCO[C@@H]1O[C@H](CO)[C@@H](O)[C@H](O)[C@H]1O [Decyl beta-D-glucopyranoside]          Å²       187.7

* * *

# PROCEDURE SUMMARY: collision cross section in nitrogen (drift tube, single-field); higher = larger gas-phase ion size
# SETTINGS: ion type: [M-H]; ion source: ESI; ion mode: Negative
PROPERTY MEASURED: collision cross section in nitrogen (Å²)

Below, each entry is followed by its recorded collision cross section in nitrogen result.
COMPOUND	MEAS VALUE
CC(C)(C)c1ccc(O)c(C(C)(C)C)c1 [2,4-Di-tert-butylphenol]	155.1
CCCCCCCCCCCCOC(C)=O [Dodecyl acetate]	162
CC(c1ccccc1)(c1ccc(O)cc1)c1ccc(O)cc1 [4,4'-(1-Phenylethylidene)bisphenol]	180
Cc1cc(=O)[nH]c(=S)[nH]1 [6-Methyl-2-thiouracil]	123.1
CCCCCCCCCCC=CC1CC(=O)OC1=O (configuration not stated) [3-(Dodecenyl)dihydro-2,5-furandione]	170.1
CC(C)Oc1cccc(NC(=O)c2ccccc2C(F)(F)F)c1 [Flutolanil]	176.1
CC(=O)Nc1ccccc1O [2-Hydroxyacetanilide]	130.2
CCc1cccc(O)c1 [3-Ethylphenol]	127.5
CCc1cccc(C)c1N(C(=O)CS(=O)(=O)O)C(C)COC (configuration not stated) [Metolachlor ESA]	173.9
CCCCNC(=O)NS(=O)(=O)c1ccc(C)cc1 [Tolbutamide]	165

(P) O=C(O)CCCCCCCCCC(=O)O [Undecanedioic acid]
(Q) COc1cc(C(=O)NC2CCN(C)CC2)ccc1Nc1ncc2c(n1)N(C1CCCC1)CC(F)(F)C(=O)N2C [Ro 3280]
// pick min by collision cross section in nitrogen: P , Q Answer by quoting the chosen item's label.
P
(P: 149 Å², Q: 236.7 Å²)

* * *

# PROCEDURE SUMMARY: collision cross section in nitrogen (drift tube, single-field); higher = larger gas-phase ion size
# SETTINGS: ion type: [M-H]; ion source: ESI; ion mode: Negative
PROPERTY MEASURED: collision cross section in nitrogen (Å²)

Look over these answered cases.
COMPOUND	collision cross section in nitrogen, Å²
NNC(=O)c1ccncc1	125.3
O=S(=O)(O)C(F)(F)C(F)(F)C(F)(F)C(F)(F)C(F)(F)C(F)(F)C(F)(F)C(F)(F)F [Potassium perfluorooctanesulfonate]	169

(A) CCOC(=O)C1=NN(c2ccccc2)C(=O)C1 [Ethyl 5-oxo-1-phenyl-4,5-dihydro-1H-pyrazole-3-carboxylate]
(B) CC[C@H]1OC(=O)[C@H](C)[C@@H](O[C@H]2C[C@@](C)(OC)[C@@H](O)[C@H](C)O2)[C@H](C)[C@@H](O[C@@H]2O[C@H](C)C[C@H](N(C)C)[C@H]2O)[C@](C)(O)C[C@@H](C)C(=NOCOCCOC)[C@H](C)[C@@H](O)[C@]1(C)O
# argmax over collision cross section in nitrogen for candidates A and B Indicate which entry you chose by stating its label.
B

* * *

# PROCEDURE SUMMARY: collision cross section in nitrogen (drift tube, single-field); higher = larger gas-phase ion size
# SETTINGS: ion type: [M+Na]; ion source: ESI; ion mode: Positive
Counter-ions that a name gives are not always drawn.
PROPERTY MEASURED: collision cross section in nitrogen (Å²)

> print(dat)
                                   compound  units.text  meas.value
1  CCCCCCCCCCCC(=O)N(C)CC(=O)O [Glycine, N-methyl-N-(1-oxododecyl)-, sodium salt]          Å²       175.8
2  Cc1nc(C)nc(N2C[C@@H](C)N(c3ccnc([C@@H](C)O)n3)[C@@H](C)C2)n1          Å²       183.4
3  COc1cccc([C@@]2(O)CCCC[C@@H]2CN(C)C)c1 [Tramadol]          Å²       171.7
4  CCN1CCC2(CC1)COc1cc3c(cc12)N(C(=O)c1ccc(-c2ccc(-c4nnc(C)o4)cc2C)cc1)CC3          Å²       264.1
5  Nc1ccn([C@@H]2O[C@H](CO)[C@@H](O)[C@@H]2O)c(=O)n1 [Cytarabine hydrochloride]          Å²       157.1
6  C=CC(=O)OCC(CC)(COC(=O)C=C)COC(=O)C=C [Trimethylolpropane triacrylate]          Å²       165.9

(a) N#CCCOCCOCCC#N [3,3'-(Ethylenedioxy)dipropiononitrile]
(b) CN1C(=O)N(c2ccccc2Br)Cc2cnc(Nc3ccc4c(c3)OCC(CO)O4)nc21 (stereo not drawn)
Record comparison, field collision cross section in nitrogen: mark the lower of a and b . Your choice should be expressed through its label.
a
(a: 143 Å², b: 219.1 Å²)

* * *

# PROCEDURE SUMMARY: collision cross section in nitrogen (drift tube, single-field); higher = larger gas-phase ion size
# SETTINGS: ion type: [M-H]; ion source: ESI; ion mode: Negative
PROPERTY MEASURED: collision cross section in nitrogen (Å²)

Known results for compounds:
> print(dat)
                                   compound                    property.measured  units.text  meas.value
1  CC1CN(c2cc3c(cc2F)c(=O)c(C(=O)O)cn3-c2ccc(F)cc2F)CCN1 (configuration not stated)  collision cross section in nitrogen          Å²       209.4
2  O=S(=O)(O)C(F)(F)C(F)(F)C(F)(F)C(F)(F)F [Potassium perfluorobutanesulfonate]  collision cross section in nitrogen          Å²       134.2

(a) c1ccc(-c2nnn[nH]2)cc1
(b) CN(C)C(=O)NC1(c2ccccc2)CCN(CCC[C@]2(c3ccc(Cl)c(Cl)c3)CCCN(C(=O)c3ccccc3)C2)CC1
Parameter metric = collision cross section in nitrogen. Return the lower-valued option from a and b . Refer to your chosen entry by its label in the reply.
a

* * *

# PROCEDURE SUMMARY: collision cross section in nitrogen (drift tube, single-field); higher = larger gas-phase ion size
# SETTINGS: ion type: [M+Na]; ion source: ESI; ion mode: Positive
PROPERTY MEASURED: collision cross section in nitrogen (Å²)
Write it as a number; the unit Å² goes unstated.

Previously resolved entries follow.
> print(dat)
                                   compound                    property.measured  meas.value
1  O=C(N[C@H]1CN2CCC1CC2)c1cc2ccoc2cn1 [(R)-N-(Quinuclidin-3-yl)furo(2,3-C)pyridine-5-carboxamide]  collision cross section in nitrogen         181
2  O=C(NCc1ncc(C(F)(F)F)cc1Cl)c1c(Cl)cccc1Cl [Fluopicolide]  collision cross section in nitrogen         187
3  COc1ccc(C(=CC(=O)N2CCOCC2)c2ccc(Cl)cc2)cc1OC  collision cross section in nitrogen         208

Switching to the query record.
Name the reported collision cross section in nitrogen value associated with the compound O=P1(N(CCCl)CCCl)NCCCO1 (centres undefined) [Cyclophosphamide monohydrate]
154.6

* * *

# PROCEDURE SUMMARY: collision cross section in nitrogen (drift tube, single-field); higher = larger gas-phase ion size
# SETTINGS: ion type: [M+H]; ion source: ESI; ion mode: Positive
PROPERTY MEASURED: collision cross section in nitrogen (Å²)

Example cases with answers are listed next.
> print(dat)
                                   molecule  meas.value
1  N[C@@H](Cc1cc(I)c(Oc2cc(I)c(O)c(I)c2)c(I)c1)C(=O)O       213.4
2  Cc1occc1C(=O)Nc1ccc(C(=O)N2CCC(F)(F)/C(=C\C(=O)N3CCC(N4CCCCC4)CC3)c3ccccc32)cc1         239
3        Nc1ccc(Oc2cccc(Oc3ccc(N)cc3)c2)cc1       168.2
4  CC(=O)CC(c1ccccc1)c1c(O)c2ccccc2oc1=O (stereo not given) [Sodium warfarin]         167
5  CCCCC(C#N)(Cn1cncn1)c1ccc(Cl)cc1 (stereo not given)       174.7

(1) O=C1c2ccccc2C(=O)N1CCc1noc(-c2ccc(CN3CCCCCC3)s2)n1
(2) CCCCNC(=S)NCCCC
Returns: the argument ( 1 or 2 ) having the larger collision cross section in nitrogen. Output the label that corresponds to your choice.
1
